Test system: DNA
Assay: Induction of unwinding effect of Escherichia coli relaxed pBR322 DNA at 1 to 9 uM preincubated with DNA for 10 mins followed by excess calf thymus TOP1 addition and measured after 30 mins by agarose gel electrophoresis
Assay type: nucleic-acid assay
Calls of active or inactive are those of the source. No cut-off for these calls is given here.
Outcomes: active, inactive

{"chemical_smiles": "O=C1c2ncccc2C(=O)c2c1c(C(=O)OCCN1CCOCC1)c1ccccn21", "target_desc": "DNA", "group_label": "inactive"}
{"chemical_smiles": "CCOC(=O)c1c2c(n3ccccc13)C(=O)c1ncccc1C2=O", "target_desc": "DNA", "group_label": "inactive"}
{"chemical_smiles": "O=C1c2cccnc2C(=O)c2c1c(C(=O)OCCN1CCCC1)c1c(F)cccn21", "target_desc": "DNA", "group_label": "inactive"}
{"chemical_smiles": "CN(C)CCCOC(=O)c1c2c(n3cccc(F)c13)C(=O)c1ncccc1C2=O", "target_desc": "DNA", "group_label": "active"}
{"chemical_smiles": "O=C1c2cccnc2C(=O)c2c1c(C(=O)OCCN1CCCCC1)c1c(Cl)cccn21", "target_desc": "DNA", "group_label": "active"}

* * *

Measured GI50 accompanies every entry in the list below.
Test system: CCRF-CEM
Assay: Cytotoxicity against human CCRF-CEM cells assessed as growth inhibition after 72 hrs by MTT assay
Format: functional

{"chemical_smiles": "O=C1c2cccnc2C(=O)c2c1c(C(=O)OCCN1CCOCC1)c1c(F)cccn21", "GI50 (nM)": 1100}
{"chemical_smiles": "O=C1c2cccnc2C(=O)c2c1c(C(=O)OCCN1CCCC1)c1c(Cl)cccn21", "GI50 (nM)": 48200}
{"chemical_smiles": "CCOC(=O)c1c2c(n3ccc(NC(=O)CCN4CCOCC4)cc13)C(=O)c1ncccc1C2=O", "GI50 (nM)": 600}
{"chemical_smiles": "O=C1c2cccnc2C(=O)c2c1c(C(=O)OCCCN1CCOCC1)c1c(F)cccn21", "GI50 (nM)": 490}
{"chemical_smiles": "CCOC(=O)c1c2c(n3ccc(NC(=O)CCN4CCCCC4)cc13)C(=O)c1ncccc1C2=O", "GI50 (nM)": 110}
{"chemical_smiles": "O=C1c2ncccc2C(=O)c2c1c(C(=O)OCCN1CCOCC1)c1ccccn21", "GI50 (nM)": 70500}
{"chemical_smiles": "CCOC(=O)c1c2c(n3ccccc13)C(=O)c1ncccc1C2=O", "GI50 (nM)": 680}
{"chemical_smiles": "O=C1c2cnncc2C(=O)c2c1c(C(=O)OCCN1CCOCC1)c1ccccn21", "GI50 (nM)": 1350}
{"chemical_smiles": "CCOC(=O)c1c2c(n3ccc(NC(=O)CCN4CCCC4)cc13)C(=O)c1ncccc1C2=O", "GI50 (nM)": 540}
{"chemical_smiles": "O=C1c2cccnc2C(=O)c2c1c(C(=O)OCCN1CCCCC1)c1c(F)cccn21", "GI50 (nM)": 380}
{"chemical_smiles": "O=C1c2cccnc2C(=O)c2c1c(C(=O)OCCCN1CCCC1)c1c(F)cccn21", "GI50 (nM)": 510}
{"chemical_smiles": "O=C1c2cccnc2C(=O)c2c1c(C(=O)OCCCN1CCCC1)c1c(Cl)cccn21", "GI50 (nM)": 85300}
{"chemical_smiles": "O=C1c2cccnc2C(=O)c2c1c(C(=O)OCCN1CCCCC1)c1c(Cl)cccn21", "GI50 (nM)": 390}
{"chemical_smiles": "CCOC(=O)c1c2c(n3ccc(NC(=O)CCN(C)C)cc13)C(=O)c1ncccc1C2=O", "GI50 (nM)": 290}
{"chemical_smiles": "O=C1c2cccnc2C(=O)c2c1c(C(=O)OCCCN1CCCCC1)c1c(Cl)cccn21", "GI50 (nM)": 5350}
{"chemical_smiles": "CN1CCN(CCCOC(=O)c2c3c(n4cccc(F)c24)C(=O)c2ncccc2C3=O)CC1", "GI50 (nM)": 320}

These entries and their values trace back to ChEMBL document CHEMBL4152240.
